# TEST_NAME: AUClast in male CD1 mouse at 10 mg/kg, IP measured upto 24 hrs by LC-MS/MS-39 analysis
# Assay type: ADME, organism-based
# STATED_CONDITIONS: in vivo
ENDPOINT_LABEL: AUClast (µM·h)
// note: answer is a bare numeric in µM·h

# input Return AUClast (reported value) for this molecule: Cc1ncsc1-c1ccc([C@H](C)NC(=O)[C@@H]2C[C@@H](O)CN2C(=O)[C@@H](NC(=O)CCCC#Cc2ccc(C(=O)Nc3n[nH]c4c3CN(C(=O)N[C@H](CN(C)C)c3ccccc3)C4(C)C)cc2)C(C)(C)C)cc1
# output 19.4

Data provenance is ChEMBL document CHEMBL5608193.
